System: A. baumannii R674
Experiment: Chequerboard combination efficacy of adjuvant with antibiotics
Assay type: cell-based
Conditions: antibiotic Tetracycline
Procedure: All the solvents were of reagent grade, which were distilled and dried before its use. All the reagents were purchased from Sigma-Aldrich, Alfa-Aesar, S.D. Fine, Avra and Spectrochem, and were used without further purification. […] Nuclear magnetic resonance spectra were recorded on Bruker (AV-400) 400 MHz spectrometer in deuterated solvents. […] For optical density measurement during bacteriology experiments, Tecan Infinite Pro series M200 Microplate Reader was used. […]
Property Name: FICI

• NCCCC[C@H](N)C(=O)NCCCCCCN(CCCCCCNC(=O)[C@@H](N)CCCCN)CC(=O)NC1C2CC3CC(C2)CC1C3 (some centres unmarked) [Compound 15] = 0.5156
• NCCCN(CCCN)C(=O)CC(c1ccccc1)c1ccccc1.O=C(O)C(F)(F)F.O=C(O)C(F)(F)F [Compound 4] = <0.5
• NCCCC[C@H](N)C(=O)NCCCN(CCCNC(=O)[C@@H](N)CCCCN)C(=O)Cc1cccc2ccccc12 [Compound 7] = <0.5
• NCCCC[C@H](N)C(=O)NCCCCCCN(CCCCCCNC(=O)[C@@H](N)CCCCN)C(=O)CC(c1ccccc1)c1ccccc1 [Compound 14] = <0.25
• NCCCN(CCCN)C(=O)Cc1ccccc1.O=C(O)C(F)(F)F.O=C(O)C(F)(F)F [Compound 1] = <0.5
• NCCCC[C@H](N)C(=O)NCCCN(CCCNC(=O)[C@@H](N)CCCCN)CC(=O)NC1C2CC3CC(C2)CC1C3.O=C(O)C(F)(F)F.O=C(O)C(F)(F)F.O=C(O)C(F)(F)F.O=C(O)C(F)(F)F.O=C(O)C(F)(F)F (some centres unmarked) [Compound 9] = <0.25
• NCCCCCCN(CCCCCCN)C(=O)CC(c1ccccc1)c1ccccc1.O=C(O)C(F)(F)F.O=C(O)C(F)(F)F [Compound 11] = 1
• NCCCCCCN(CCCCCCN)C(=O)Cc1cccc2ccccc12 [Compound 10] = <0.375
• NCCCN(CCCN)C(=O)Cc1cccc2ccccc12.O=C(O)C(F)(F)F.O=C(O)C(F)(F)F [Compound 2] = <0.625
• NCCCCCCN(CCCCCCN)CC(=O)NC1C2CC3CC(C2)CC1C3.O=C(O)C(F)(F)F.O=C(O)C(F)(F)F.O=C(O)C(F)(F)F (centres unmarked) [Compound 12] = 0.625
• NCCCC[C@H](N)C(=O)NCCCCCCN(CCCCCCNC(=O)[C@@H](N)CCCCN)C(=O)Cc1cccc2ccccc12 [Compound 13] = 0.375

====

system: P. aeruginosa R590; test: Chequerboard combination efficacy of adjuvant with antibiotics; type: cell-based; conditions: antibiotic Rifampicin; P. aeruginosa R590
Property Name: Potentiation factor

- NCCCCCCN(CCCCCCN)C(=O)Cc1cccc2ccccc12 [Compound 10]: 128
- NCCCN(CCCN)C(=O)CC(c1ccccc1)c1ccccc1.O=C(O)C(F)(F)F.O=C(O)C(F)(F)F [Compound 4]: 32
- NCCCN(CCCN)C(=O)c1ccc(-c2ccccc2)cc1.O=C(O)C(F)(F)F.O=C(O)C(F)(F)F [Compound 3]: 4
- NCCCCCCN(CCCCCCN)CC(=O)NC1C2CC3CC(C2)CC1C3.O=C(O)C(F)(F)F.O=C(O)C(F)(F)F.O=C(O)C(F)(F)F (stereo not shown) [Compound 12]: 1024
- CC(C)(C)OC(=O)NC(Cc1c[nH]c2ccccc12)C(=O)N(CCCN)CCCN.O=C(O)C(F)(F)F.O=C(O)C(F)(F)F.O=C(O)C(F)(F)F (stereo not shown) [Compound 5]: 16
